The reported numbers originate from the Immune Epitope Database (IEDB).

molecular target: HLA-B*83:01; experiment: IEDB peptide-MHC binding, purified MHC/competitive/fluorescence; filed as Kd, often an IC50 or EC50 that approximates it; bounds were set here for any values at or beyond the usual limits of such assays; conditions: source organism: Burkholderia pseudomallei 406e
pKd: −log10 of the molar value.
PROPERTY NAME: pKd

{"columns": ["QUERY SEQUENCE", "SYSTEM UNDER TEST", "PROPERTY NAME", "VAL"],
 "data": [
  ["MSWGWRLPF", "HLA-B*83:01", "pKd", 5.23]
]}

---

molecular target: HLA-B*15:01; assay: IEDB peptide-MHC binding, purified MHC/direct/fluorescence; filed as Kd, often an IC50 or EC50 that approximates it; bounds were set here for any values at or beyond the usual limits of such assays; conditions: source organism: Salmonella enterica subsp. enterica serovar Typhimurium str. LT2

{"columns": ["QUERY SEQUENCE", "Kd"],
 "data": [
  ["FKYDSTKPL", "≥ 20 µM"]
]}
